Target: adenosine A2 receptor (Rattus norvegicus, UniProt P30543)
Construct: from tissue; host or cells: rat striatal membranes
Sequence (P30543 whole entry): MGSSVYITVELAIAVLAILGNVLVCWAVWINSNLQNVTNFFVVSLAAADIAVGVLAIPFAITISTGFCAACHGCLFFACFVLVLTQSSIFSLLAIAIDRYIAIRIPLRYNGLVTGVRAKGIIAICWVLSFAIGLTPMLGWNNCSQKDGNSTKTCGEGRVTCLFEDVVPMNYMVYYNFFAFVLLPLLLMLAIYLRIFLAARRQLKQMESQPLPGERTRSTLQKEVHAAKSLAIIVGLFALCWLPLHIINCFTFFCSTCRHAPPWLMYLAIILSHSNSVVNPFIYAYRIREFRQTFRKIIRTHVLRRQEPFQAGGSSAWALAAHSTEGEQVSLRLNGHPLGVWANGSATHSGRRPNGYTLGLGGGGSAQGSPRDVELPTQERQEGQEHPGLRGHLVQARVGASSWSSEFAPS
Assay: [3H]-NECA binding to rat striatal membranes (A2 affinity, RBA-2)
Property: IC50 (nM)

a = CCCn1c(=O)c2[nH]c(C3CCCO3)nc2n(CCC)c1=O (stereo not shown) [Example 2]
b = CCCn1c(=O)c2[nH]c(C3CCSC3)nc2n(CCC)c1=O (stereo not shown) [Example 1]
c = CCCn1c(=O)c2[nH]c(C3CCOC3)nc2n(CCC)c1=O (stereo not shown) [Example 3]
d = Cn1c(=O)c2nc(C3CCOC3)[nH]c2n(C)c1=O (stereo not shown) [Example 4]
Request: Place the item with the largest IC50 first, then continue in falling order, using the list above. Please list the labels according to the requested order.
Response: c, a, d, b
